# systemUnderTest: Reg1_301-599 (amino acids 301-599 of human Regnase-1) phosphorylation by IKKβ (Homo sapiens)
# Sequence (Q5D1E8 301-599): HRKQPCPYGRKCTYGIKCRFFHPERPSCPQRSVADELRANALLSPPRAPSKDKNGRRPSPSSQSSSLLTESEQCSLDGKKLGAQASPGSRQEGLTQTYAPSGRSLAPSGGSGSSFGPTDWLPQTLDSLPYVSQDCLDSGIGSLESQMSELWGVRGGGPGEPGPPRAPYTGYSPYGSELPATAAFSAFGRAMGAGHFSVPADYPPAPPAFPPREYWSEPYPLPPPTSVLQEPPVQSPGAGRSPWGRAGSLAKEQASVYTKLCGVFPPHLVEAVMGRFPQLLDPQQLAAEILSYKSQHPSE
Residues, ends and D or L forms follow the SMILES beside them.
measurementType: IC50 (µM)
Give the value, in units of µM, as a plain number.

Task: State the recorded IC50 for this entry: CC[C@H](C)[C@@H]1NC(=O)[C@H](CCCNC(=N)N)NC(=O)[C@H](Cc2ccc(O)cc2)NC(=O)[C@H](Cc2c[nH]c3ccccc23)NC(=O)[C@H](C)NC(=O)[C@H](CO)NC(=O)[C@H](C)NC(=O)[C@H](Cc2c[nH]cn2)NC(=O)[C@H](CCCCN)NC(=O)[C@@H](C)N(C)C(=O)C[C@@H](C(=O)N2CCCC2)NC(=O)[C@H](Cc2c[nH]c3ccccc23)NC1=O [PP3] (HELM PEPTIDE1{[C[C@H](C(=O)[*:2])N(C)[*:1]].K.H.A.S.A.W.Y.R.I.W.D.[C1CCN([*:1])C1]}$PEPTIDE1,PEPTIDE1,1:R1-12:R3$$$V2.0)
Result: 6.8

Task: Also check CC[C@H](C)[C@@H]1NC(=O)[C@H](CC(=O)O)NC(=O)[C@H](C)N(C)C(=O)C[C@@H](C(=O)N2CCCC2)NC(=O)[C@H](Cc2ccc(O)cc2)NC(=O)[C@H](CC(=O)O)NC(=O)[C@H](Cc2c[nH]c3ccccc23)NC(=O)[C@H](Cc2ccc(O)cc2)NC(=O)[C@H](CC(=O)O)NC(=O)[C@H](Cc2ccccc2)NC(=O)[C@H](Cc2c[nH]c3ccccc23)NC1=O [PP18] (HELM PEPTIDE1{[meA].D.I.W.F.D.Y.W.D.Y.D.[C1CCN([*:1])C1]}$PEPTIDE1,PEPTIDE1,1:R1-11:R3$$$V2.0)
Result: 0.5
